tested on: HOP-62 NSCLC; test: NCI tumour cell line growth inhibition, 48 h
value_kind: TGI

Test system HOP-62 NSCLC; read-out TGI; what value for COc1cc(C2c3cc4c(cc3OC3(OC)COC(=O)C23)OCO4)cc(OC)c1OC (stereo unspecified) ?
> 100 µM

Test system HOP-62 NSCLC; read-out TGI; what value for `O=c1cc(-c2ccccc2)nc(/C=C(\O)c2ccncc2)n1-c1ccccc1` ?
> 100 µM

Test system HOP-62 NSCLC; read-out TGI; what value for COc1ccc2c(c1)CC1(O)COc3cc(OC)ccc3C1O2 (stereo unspecified) ?
> 100 µM

Test system HOP-62 NSCLC; read-out TGI; what value for `CN(C)C(=S)/N=c1\ss/c(=N\C(=S)N(C)C)n1-c1ccc(Cl)cc1` ?
> 100 µM

Test system HOP-62 NSCLC; read-out TGI; what value for `COP(=O)(OC)c1ccc(NCc2cc(O)ccc2O)cc1` ?
> 84.7 µM

Test system HOP-62 NSCLC; read-out TGI; what value for `CC(C)[NH-].CC(C)[NH-].O.O.[Cl][Pt+2][Cl]` ?
194 µM

Test system HOP-62 NSCLC; read-out TGI; what value for COC1=C2C[C@H](O)C(C)C[C@@]2(OC)OC1=O (stereo partly specified) ?
> 100 µM

Test system HOP-62 NSCLC; read-out TGI; what value for `COc1ccc(S(=O)(=O)Nc2ccc(-c3csc(N4C(=O)/C(=C/c5ccccc5)N=C4c4ccccc4)n3)cc2)cc1Cl` ?
> 100 µM

Test system HOP-62 NSCLC; read-out TGI; what value for `CNc1ncnc2c1nnn2C` ?
> 100 µM

Test system HOP-62 NSCLC; read-out TGI; what value for COC(=O)[C@@]12OC[C@]34C([C@@H](O)C1O)[C@@]1(C)CC(=O)C(O)=C(C)C1C[C@H]3OC(=O)[C@H](OC(=O)/C=C(/c1ccccc1)C(F)(F)F)[C@H]42 (stereo partly specified) ?
> 25 µM

Test system HOP-62 NSCLC; read-out TGI; what value for `Cc1ccc(C(=O)N2CCN(C(=O)c3ccc(C)cc3)c3ccccc32)cc1` ?
> 100 µM

Test system HOP-62 NSCLC; read-out TGI; what value for `O=c1oc(-c2ccccc2)cc2cccc(O)c12` ?
40.9 µM

Test system HOP-62 NSCLC; read-out TGI; what value for `COc1ccc(/C=N\NC(=O)Nc2cccc3ccccc23)cc1` ?
26.5 µM

Test system HOP-62 NSCLC; read-out TGI; what value for `CN1CCN(/C(N)=C(\C#N)C(=O)Nc2ccccc2)CC1` ?
> 100 µM

Test system HOP-62 NSCLC; read-out TGI; what value for `O=C(NC12CC3CC(CC(C3)C1)C2)C(=O)c1c[nH]c2ccc([N+](=O)[O-])cc12` ?
> 59.1 µM

Test system HOP-62 NSCLC; read-out TGI; what value for COc1cc2c(cc1OC)C(CC1(O)CCCCC1)N(S(=O)(=O)c1ccc(C)cc1)CC2 (stereo unspecified) ?
> 10 µM

Test system HOP-62 NSCLC; read-out TGI; what value for `Clc1ccc(C(c2ccc(Cl)cc2)N2CCNCC2)cc1` ?
3.71 µM

Test system HOP-62 NSCLC; read-out TGI; what value for `Cc1[nH]c(=O)nc2nc3ccc(Cl)cc3c(NC(C)(CO)CO)c12` ?
61.3 µM

Test system HOP-62 NSCLC; read-out TGI; what value for `COc1ccc2c(c1)c1nc3cc(C)c(C)cc3nc1n2CCN(C)C` ?
3.37 µM

Test system HOP-62 NSCLC; read-out TGI; what value for `CCCCCCCCCCCCCCCCCCOc1ccc(/C=C/C2=[N+](CCCl)CCO2)cc1` ?
> 100 µM

Test system HOP-62 NSCLC; read-out TGI; what value for `COc1ccc(/C(Cl)=C(\C=O)c2ccccc2)cc1OC` ?
81.8 µM

---

tested on: CCRF-CEM leukemia; assay: NCI tumour cell line growth inhibition, 48 h; in the data active = GI50 below about 0.43 µM; inactive = the rest
Valid outcomes are listed here; reply with one: active, inactive

Check the results log: what was the call for `COc1ccc(-c2cn(-c3cccc(C(=O)/C=C/c4ccc(O)c(OC)c4)c3)c(=O)[nH]2)cc1` ?
inactive

Check the results log: what was the call for `O=C1NC(=O)C(c2ccc(Cl)cc2)=C1Nc1ccc(Cl)c(C(=O)O)c1` ?
inactive

Check the results log: what was the call for `CN1C(=O)C(=Cc2cn(Cc3ccccc3)c3ccccc23)C(=O)N(C)C1=O` ?
inactive

Check the results log: what was the call for `COc1cc(-c2csc(NC(=O)Nc3cc(C(F)(F)F)cc(C(F)(F)F)c3)n2)cc(OC)c1OC` ?
inactive

Check the results log: what was the call for `CC(=O)OC(C)(C)/C=C/C(=O)[C@](C)(O)[C@H]1[C@H](O)C[C@@]2(C)[C@@H]3CC=C4[C@@H](C[C@H](O)C(=O)C4(C)C)[C@]3(CO)C(=O)C[C@]12C` ?
active

Check the results log: what was the call for O=C(Nc1ccc2[nH]c(C(=O)N3CC(CCl)c4c3cc([N+](=O)[O-])c3ccccc43)cc2c1)c1cc2ccccc2o1 (stereo not drawn) ?
inactive

Check the results log: what was the call for `O=C(O)c1ccc2c3c(ncnc13)-c1ccccc1C2=O` ?
inactive

Check the results log: what was the call for `COc1ccc2c3c(c4ccccc4cc13)C(=O)N(CCN(C)CCN)C2=O` ?
active

---

tested on: DLD-1 colon; assay: NCI tumour cell line growth inhibition, 48 h
Field: TGI. Provide a value for each of the compounds that follow.

Requested field: TGI. Item: `COc1cc2cc3c4c(cc(OC)c(OC)c4c2cc1OC)CCN3C(=O)N(C)C`
> 100 µM

Requested field: TGI. Item: `NC(CC(=O)Nc1ccc(Cl)cc1)=Nc1ccccc1`
> 100 µM

Requested field: TGI. Item: `CC(C)[NH-].CC(C)[NH-].O.O.[Cl][Pt+2][Cl]`
238 µM

Requested field: TGI. Item: `O=C1OC(c2ccc(Cl)cc2)(c2ccc(Cl)cc2)c2c1ccc1ccccc21`
> 100 µM

Requested field: TGI. Item: CCCCCCCCC(O)C#CC(N)=O (stereo not given)
21.8 µM

Requested field: TGI. Item: `COc1ccc(/C(Cl)=C(\C=O)c2ccccc2)cc1OC`
> 100 µM

Requested field: TGI. Item: `CC(=O)Nc1ccc(-c2nnc(SCC(=O)Nc3cccc([N+](=O)[O-])c3)o2)cc1`
35.5 µM

Requested field: TGI. Item: CCOc1ccccc1N1C(=O)C(=O)C(c2nc3ccccc3o2)/C(=N\N)C1=O (stereo not given)
> 100 µM

Requested field: TGI. Item: `COc1ccc(-c2nnc(-c3c(C)n(C)n(-c4ccccc4)c3=O)o2)cc1`
> 100 µM

Requested field: TGI. Item: O=C1C2=C(CCCCC2)C2CCCCC12O (stereo not given)
> 100 µM

---

Field: TGI. Provide a value for each of the compounds that follow.
system: BT-549 breast; experiment: NCI tumour cell line growth inhibition, 48 h
Give a bare numeral; the unit µM is implied.

Requested field: TGI. Item: `O=[N+]([O-])c1ccc2nc(/C=C(\O)c3ccccc3)c(/C=C(\O)c3ccccc3)nc2c1`
62.1

Requested field: TGI. Item: `CCCOC(=O)N[C@H]1CCc2cc(OC)c(OC)c(OC)c2-c2ccc(SC)c(=O)cc21`
19.6

Requested field: TGI. Item: O=CC(Br)C(Br)c1ccccc1 (stereo unspecified)
8.47

---

tested on: EKVX NSCLC; experiment: NCI tumour cell line growth inhibition, 48 h
value_kind: TGI

Test system EKVX NSCLC; read-out TGI; what value for `CSC1(SC)N2Cc3ccccc3N=C2C1(c1ccccc1)c1ccccc1` ?
> 89 µM

Test system EKVX NSCLC; read-out TGI; what value for CCCCCCCC(=O)OCC(C[As](=O)(O)O)OC(=O)CCCCCCC (stereo not given) ?
33.8 µM

Test system EKVX NSCLC; read-out TGI; what value for `COC(=O)c1ccc(NC(=O)c2cc(OC)c(OC)c(OC)c2)cc1` ?
> 100 µM

Test system EKVX NSCLC; read-out TGI; what value for `Cc1cc2c(cc1-c1cc3c(cc1C)C(C(C)C)=C(O)C(=O)/C3=C\Nc1c(C)n(C)n(-c3ccccc3)c1=O)/C(=C/Nc1c(C)n(C)n(-c3ccccc3)c1=O)C(=O)C(O)=C2C(C)C` ?
> 100 µM

Test system EKVX NSCLC; read-out TGI; what value for `CN(C)CCCNc1cnc2cc3ccccc3cc2n1` ?
> 100 µM

---

test system: LOX IMVI melanoma; assay: NCI tumour cell line growth inhibition, 48 h
Field: TGI. Provide a value for each of the compounds that follow.

Requested field: TGI. Item: `C[C@]12CC[C@H](O)CC1=CC[C@@H]1[C@@H]2CC[C@]2(C)c3nc(Cl)ccc3C[C@@H]12`
> 100 µM

Requested field: TGI. Item: N#Cc1ccc(C2C3=C(CCCC3=O)OC3=C2C(=O)c2ccccc2C3=O)cc1 (stereo not given)
1.69 µM

Requested field: TGI. Item: `NC(=O)C(=Cc1ccc(CP(=O)(O)O)cc1)C(N)=O`
> 100 µM

Requested field: TGI. Item: `Cc1[nH]c(=O)nc2nc3ccc(Cl)cc3c(NC(C)(CO)CO)c12`
> 100 µM

Requested field: TGI. Item: `COc1c2c(c(CC=C(C)C)c3oc(=O)c(-c4ccc(O)cc4)c(O)c13)OC(C)(C)C=C2`
> 100 µM
